# key: entry, value: percent inhibition of AR
test system: AR mRNA; assay: Dose-dependent antisense inhibition of human AR in HuVEC cells (electroporation, qRT-PCR RTS3559, IC50); type: cell-based; details: 500.0 nM; HuVEC, ~16 h; Table 4
Oligonucleotides are written 5' to 3', each unit as a sugar letter and its base; * is a phosphorothioate linkage, no mark a phosphodiester; rarer units and linkages stand in square brackets, end groups in braces. Plain capitals give the bases only. k = constrained ethyl (cEt); [5mC] = 5-methylcytosine; d = 2'-deoxy (DNA)
Could you give me the number in %? Just the number is fine.

549332 (kG*k[5mC]*kG*d[5mC]*dT*d[5mC]*dT*dG*dA*d[5mC]*dA*dG*d[5mC]*k[5mC]*kT*k[5mC]; antisense) [compound 549332]; 79

Fill in: percent inhibition of AR of 549366 (k[5mC]*kT*kT*dG*d[5mC]*d[5mC]*dT*dG*d[5mC]*dG*d[5mC]*dT*dG*kT*k[5mC]*kG; antisense) [compound 549366] is ___ 72

Fill in: percent inhibition of AR of 549338 (kG*kG*k[5mC]*dT*dG*dT*dG*dA*dT*dG*dA*dT*dG*k[5mC]*kG*kG; antisense) [compound 549338] is ___ 67

Fill in: percent inhibition of AR of 549432 (kG*kA*kG*dG*dA*dT*d[5mC]*dA*dT*d[5mC]*dA*d[5mC]*dA*kG*kA*kT) [compound 549432] is ___ 80

Fill in: percent inhibition of AR of 549434 (k[5mC]*kT*kA*dA*dA*d[5mC]*dT*dT*d[5mC]*d[5mC]*d[5mC]*dG*dT*kG*kG*k[5mC]) [compound 549434] is ___ 86

Fill in: percent inhibition of AR of 549347 (k[5mC]*kT*kT*d[5mC]*dG*d[5mC]*dG*d[5mC]*dA*d[5mC]*dG*d[5mC]*dT*k[5mC]*kT*kG; antisense) [compound 549347] is ___ 62

Fill in: percent inhibition of AR of 549334 (k[5mC]*kA*k[5mC]*d[5mC]*dT*dG*d[5mC]*dG*dG*dG*dA*dA*dG*k[5mC]*kT*k[5mC]; antisense) [compound 549334] is ___ 63

Fill in: percent inhibition of AR of 549387 (kA*kG*k[5mC]*dT*dT*d[5mC]*dA*dT*d[5mC]*dT*d[5mC]*d[5mC]*dA*k[5mC]*kA*kG; antisense) [compound 549387] is ___ 68

Fill in: percent inhibition of AR of 549414 (kG*kT*kT*d[5mC]*dA*dT*dT*d[5mC]*dG*dA*dA*dG*dT*kT*k[5mC]*kA) [compound 549414] is ___ 53

Fill in: percent inhibition of AR of 549457 (kT*kT*kG*dA*dT*dT*dT*dA*dA*dT*dG*dG*dT*kT*kG*k[5mC]) [compound 549457] is ___ 99

====

# key: entry, value: percent inhibition of AR
system: AR mRNA; assay: Dose-dependent antisense inhibition of human AR in HuVEC cells (electroporation, qRT-PCR RTS3559, IC50); type: cell-based; conditions: 62.5 nM; HuVEC, ~16 h; Table 8
Oligonucleotides are written 5' to 3', each unit as a sugar letter and its base; * is a phosphorothioate linkage, no mark a phosphodiester; rarer units and linkages stand in square brackets, end groups in braces. Plain capitals give the bases only. e = 2'-O-(2-methoxyethyl) (MOE); k = constrained ethyl (cEt); [5mC] = 5-methylcytosine; d = 2'-deoxy (DNA)

Answered cases to consult:
569222 (antisense eT*eT*kG*kA*kT*dT*dT*dA*dA*dT*dG*dG*dT*kT*kG*k[5mC]) [compound 569222]; 48%
560131 (antisense kT*kT*kG*dA*dT*dT*dT*dA*dA*dT*dG*dG*kT*kT*kG*e[5mC]) [compound 560131]; 48%

Consider the additional substance presented here.
Fill in: percent inhibition of AR of 569213 (antisense kT*kG*kA*dT*dT*dT*dA*dA*dT*dG*dG*dT*kT*kG*k[5mC]*eA) [compound 569213] is ___ 53%

====

test system: AR mRNA; assay: Dose-dependent antisense inhibition of human AR in HuVEC cells (electroporation, qRT-PCR RTS3559, IC50); assay type: cell-based; settings: Table 35; 3000.0 nM, HuVEC, electroporation, approximately 16 hours
Oligonucleotides are written 5' to 3', each unit as a sugar letter and its base; * is a phosphorothioate linkage, no mark a phosphodiester; rarer units and linkages stand in square brackets, end groups in braces. Plain capitals give the bases only. k = constrained ethyl (cEt); [5mC] = 5-methylcytosine; d = 2'-deoxy (DNA)
value kind: percent inhibition of AR, 3000.0 nM
A bare number is not enough; add the unit after it.

584163 (kG*kA*kA*d[5mC]*dA*dT*dT*dA*dT*dT*dA*dG*dG*k[5mC]*kT*kA) [compound 584163]; 90%

Notebook entry, AR mRNA assay: percent inhibition of AR, 3000.0 nM of 584145 (kA*kT*kG*dG*dG*dA*dG*dT*dA*dA*d[5mC]*dT*dT*kT*kT*kG; antisense) [compound 584145] = ? 88%

Notebook entry, AR mRNA assay: percent inhibition of AR, 3000.0 nM of 584162 (kT*kG*kG*dA*dT*dT*dG*dT*dA*dA*dA*dT*dT*kA*k[5mC]*kG; antisense) [compound 584162] = ? 92%

Notebook entry, AR mRNA assay: percent inhibition of AR, 3000.0 nM of 584149 (kG*kT*k[5mC]*dA*dA*dT*dA*dT*d[5mC]*dA*dA*dA*dG*k[5mC]*kA*k[5mC]) [compound 584149] = ? 89%

Notebook entry, AR mRNA assay: percent inhibition of AR, 3000.0 nM of 584167 (kG*kA*kG*dT*dG*dT*dT*dA*dA*dT*dG*dA*dA*kG*kA*k[5mC]; antisense) [compound 584167] = ? 93%

Notebook entry, AR mRNA assay: percent inhibition of AR, 3000.0 nM of 584166 (k[5mC]*kA*k[5mC]*dA*dT*d[5mC]*dA*dG*dA*dA*dG*dG*dA*kG*kT*kA; antisense) [compound 584166] = ? 92%

Notebook entry, AR mRNA assay: percent inhibition of AR, 3000.0 nM of 584180 (kG*kT*kA*dG*dA*dT*dT*d[5mC]*dT*dA*dG*d[5mC]*dT*kT*kT*kG; antisense) [compound 584180] = ? 96%

====

test system: AR mRNA; test: Dose-dependent antisense inhibition of human AR in HuVEC cells (electroporation, qRT-PCR RTS3559, IC50); type: cell-based; conditions: HuVEC, ~16 h; Table 14
Oligonucleotides are written 5' to 3', each unit as a sugar letter and its base; * is a phosphorothioate linkage, no mark a phosphodiester; rarer units and linkages stand in square brackets, end groups in braces. Plain capitals give the bases only. e = 2'-O-(2-methoxyethyl) (MOE); k = constrained ethyl (cEt); [5mC] = 5-methylcytosine; d = 2'-deoxy (DNA)
# key: entry, value: IC50
Could you give me the number in nM? Just the number is fine.

549458 (kG*kT*kT*dG*dA*dT*dT*dT*dA*dA*dT*dG*dG*kT*kT*kG) [compound 549458]; 196
549372 (kA*kA*kG*dT*dT*dG*dT*dA*dG*dT*dA*dG*dT*k[5mC]*kG*k[5mC]) [compound 549372]; 271
569220 (antisense eA*kT*kG*kG*dT*dT*dG*dA*dT*dT*dT*dA*kA*kT*kG*eG) [compound 569220]; 275
560133 (antisense kA*kT*kG*dG*dT*dT*dG*dA*dT*dT*dT*dA*kA*kT*kG*eG) [compound 560133]; 336

Notebook entry, AR mRNA assay: IC50 of 569215 (antisense kT*kG*kG*dT*dT*dG*dA*dT*dT*dT*dA*dA*kT*kG*kG*eT) [compound 569215] = ? 234

Notebook entry, AR mRNA assay: IC50 of 569229 (antisense eG*eT*kT*kG*kA*dT*dT*dT*dA*dA*dT*dG*kG*kT*kT*eG) [compound 569229] = ? 220

Notebook entry, AR mRNA assay: IC50 of 569223 (antisense eG*eT*kT*kG*kA*dT*dT*dT*dA*dA*dT*dG*dG*kT*kT*kG) [compound 569223] = ? 191

====

details: cynomolgus monkey, in vivo, sc, 40 mg/kg
# key: entry, value: Heart weight
Could you give me the number in g? Just the number is fine.

Answered cases to consult:
TTGATTTAATGGTTGC [ISIS 579671] (cEt/MOE gapmer chemistry, further chemistry not given here); 8.8
TGATTTAATGGTTGCA [ISIS 569236] (cEt/MOE gapmer chemistry, further chemistry not given here); 8.4
ISIS 583918: antisense compound targeted to human AR (AGTCGCGACTCTGGTA; 3-10-3 (S)-cEt gapmer, further chemistry not given here); 8.9

Consider the additional substance presented here.
Fill in: Heart weight of TGATTTAATGGTTGCA [ISIS 569221] (cEt/MOE gapmer chemistry, further chemistry not given here) is ___ 8.5
